Tested on: Escherichia coli TOP10;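 also: peptides expressed intracellularly from a pBAD plasmid library in pooled LB shake-flask culture, induced with 0.3% L-arabinose, DNA abundance read by NGS, three biological replicates, DESeq2 with apeglm shrinkage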
TEST_DESCRIPTION: shrunken log2 fold change of peptide-encoding DNA abundance (4.5 h post-induction vs induction); higher = less antimicrobial activity (less host growth inhibition)
CONDITION_PARAMETERS: time post-induction: 4.5 h; library: site-saturation at positions 5, 18, 19, 20
MEASURE: shrunken log2 fold change
Simply state the number, no unit and no words.

Example entries and their recorded answers appear below.
# ORDERED_RESIDUES, shrunken log2 fold change
rows = [
    ("RRIRSRPPRLPRPRPRPMGTPRP", 0.194),
    ("RRIRRRPPRLPRPRPRPLKNPRP", 0.29),
    ("RRIRARPPRLPRPRPRPFNVPRP", 0.0338),
]

Dear colleague, please send me the reported shrunken log2 fold change for `RRIRKRPPRLPRPRPRPPCMPRP` when you can.
-0.0208

In one line, give reported shrunken log2 fold change of the entry `RRIRGRPPRLPRPRPRPCNFPRP` .
0.138

Tell me shrunken log2 fold change reported for `RRIRVRPPRLPRPRPRPMSIPRP`
-0.306

Report shrunken log2 fold change, nothing else, for this sequence: `RRIRGRPPRLPRPRPRPHWMPRP`
0.0496

Could you please provide reported shrunken log2 fold change for `RRIRLRPPRLPRPRPRPEFCPRP` ? Thanks!
0.11

# return recorded shrunken log2 fold change for entry `RRIRYRPPRLPRPRPRPGPWPRP`
0.18

Specify measured shrunken log2 fold change for `RRIRHRPPRLPRPRPRPYLQPRP` .
-0.0639

// provenance: the supplement of paper PMC9112550
